Biological target: BTK (Homo sapiens (Human), UniProt Q06187)
Sequence (Q06187 whole entry): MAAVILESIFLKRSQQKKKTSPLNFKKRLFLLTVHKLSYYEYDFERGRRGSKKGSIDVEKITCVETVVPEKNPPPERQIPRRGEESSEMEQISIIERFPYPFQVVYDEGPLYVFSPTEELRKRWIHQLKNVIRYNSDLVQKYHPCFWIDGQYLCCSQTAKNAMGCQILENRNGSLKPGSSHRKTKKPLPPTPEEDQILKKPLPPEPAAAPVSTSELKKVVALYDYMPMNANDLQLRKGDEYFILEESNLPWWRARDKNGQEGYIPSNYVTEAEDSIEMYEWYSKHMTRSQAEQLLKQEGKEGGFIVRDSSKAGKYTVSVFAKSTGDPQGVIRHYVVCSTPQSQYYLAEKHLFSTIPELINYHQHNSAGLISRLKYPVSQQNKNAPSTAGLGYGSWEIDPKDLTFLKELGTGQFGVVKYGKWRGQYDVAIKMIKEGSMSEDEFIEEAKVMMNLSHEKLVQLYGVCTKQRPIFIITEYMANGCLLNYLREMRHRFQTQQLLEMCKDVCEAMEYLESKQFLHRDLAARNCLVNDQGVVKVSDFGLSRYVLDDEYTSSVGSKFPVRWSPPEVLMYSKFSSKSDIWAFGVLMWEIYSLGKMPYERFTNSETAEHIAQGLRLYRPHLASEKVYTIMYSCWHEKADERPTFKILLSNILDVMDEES
Test: In Vitro PD Assay in Human Whole Blood (pBTK assay)
Assay type: cell-based
Conditions: 37° C. for 30 min, 50% inhibition of ECL signal
PROPERTY MEASURED: IC50

[[record]]
compound = "CC(C)(C)c1nc(C(=O)NCc2ccc(-c3ccnc(NC(=O)C4CC4)c3)cc2OC(F)(F)F)no1 [Compound 107]"
property_measured = "IC50"
experimental_value = "≤ 100 nM"

[[record]]
compound = "Cc1cc(-c2cc(NC(=O)C3CC3)ncc2Cl)ccc1CNC(=O)c1noc(C(C)(C)C)n1 [Compound 7]"
property_measured = "IC50"
experimental_value = "100 to 500 nM"

[[record]]
compound = "C[C@@H](NC(=O)c1nc(C(C)(C)C)no1)c1cc(F)c(-c2ccnc(NC(=O)C3CC3)c2)cc1Cl [Compound 70]"
property_measured = "IC50"
experimental_value = "500 to 10000 nM"

[[record]]
compound = "CC(C)(C)c1noc(C(=O)NCc2ccc(-c3ccnc(NC(=O)C4CC4)c3)cc2OC(F)(F)F)n1 [Compound 80]"
property_measured = "IC50"
experimental_value = "500 to 10000 nM"

[[record]]
compound = "C[C@@H](NC(=O)c1noc(C(C)(C)C)n1)c1cc(F)c(-c2ccnc(NC(=O)C3CC3)c2)cc1Cl [Compound 76]"
property_measured = "IC50"
experimental_value = "500 to 10000 nM"

[[record]]
compound = "Cc1c(CNC(=O)c2noc(C(C)(C)C)n2)ccc(-c2ccnc(NC(=O)C3CC3)c2)c1Cl [Compound 84]"
property_measured = "IC50"
experimental_value = "100 to 500 nM"

[[record]]
compound = "Cc1cc(-c2ccnc(NC(=O)C3CC3)c2)ccc1CNC(=O)c1nnc(C(C)(C)C)o1 [Compound 90]"
property_measured = "IC50"
experimental_value = "100 to 500 nM"

[[record]]
compound = "C[C@@H](NC(=O)c1noc(C(C)(C)C)n1)c1ccc(-c2cc(NC(=O)C3CC3)ncc2F)cc1Cl [Compound 22]"
property_measured = "IC50"
experimental_value = "100 to 500 nM"

[[record]]
compound = "C[C@@H](NC(=O)c1noc(C(C)(C)C)n1)c1ccc(-c2ccnc(NC(=O)C3CC3)c2)cc1C(F)(F)F [Compound 78]"
property_measured = "IC50"
experimental_value = "100 to 500 nM"

[[record]]
compound = "CCc1cc(-c2ccnc(NC(=O)C3CC3)c2)ccc1CNC(=O)c1noc(C(C)(C)C)n1 [Compound 73]"
property_measured = "IC50"
experimental_value = "500 to 10000 nM"

[[record]]
compound = "Cc1c(-c2ccnc(NC(=O)C3CC3)c2)ccc(CNC(=O)c2noc(C(C)(C)C)n2)c1F [Compound 101]"
property_measured = "IC50"
experimental_value = "500 to 10000 nM"

[[record]]
compound = "Cc1c(CNC(=O)c2noc(C(C)(C)C)n2)ccc(-c2ccnc(NC(=O)C3CC3)c2)c1F [Compound 11]"
property_measured = "IC50"
experimental_value = "≤ 100 nM"

[[record]]
compound = "CC(C)(C)c1nc(C(=O)N[C@H]2CCCOc3cc(-c4ccnc(NC(=O)C5CC5)c4)ccc32)no1 [Compound 53]"
property_measured = "IC50"
experimental_value = "> 10000 nM"

[[record]]
compound = "CC(C)(C)n1cc(F)c(C(=O)NCc2ccc(-c3ccnc(NC(=O)C4CC4)c3)c(F)c2C2CC2)n1 [Compound 29]"
property_measured = "IC50"
experimental_value = "500 to 10000 nM"

[[record]]
compound = "Cc1cc(-c2ccnc(NC(=O)C3CC3)c2F)ccc1CNC(=O)c1noc(C(C)(C)C)n1 [Compound 44]"
property_measured = "IC50"
experimental_value = "500 to 10000 nM"

